biological target: hCA II (Homo sapiens, UniProt P00918); construct: gene CA2; purchased from Merck; assay: stopped-flow CO2 hydration; assay type: biochemical; details: read-out: KI (nM) * / Human Isoforms / hCA II
property-label: Ki (nM)
Express your answer in nM, writing the number without its unit.

Reference set, count: 4
>  <molecule>
NS(=O)(=O)c1ccc(/N=N/c2ccc(O)c(C(F)(F)F)c2)cc1 [4d]

>  <Ki, nM>
4.8

$$$$
>  <molecule>
NS(=O)(=O)c1ccc(/N=N/c2ccc(O)cc2C(F)(F)F)cc1 [4e]

>  <Ki, nM>
4.2

$$$$
>  <molecule>
Cc1cc(O)ccc1/N=N/c1ccc(S(N)(=O)=O)cc1 [4j]

>  <Ki, nM>
4.7

$$$$
>  <molecule>
Cc1cc(O)cc(C)c1/N=N/c1ccc(S(N)(=O)=O)cc1 [4g]

>  <Ki, nM>
3.7

$$$$

-- ask Query the reported Ki for hCA II (Homo sapiens, UniProt P00918); item: Cc1cc(/N=N/c2ccc(S(N)(=O)=O)cc2)c(C)cc1O [4f]
-- reply 1.9
